Collected GI50 values appear next to each entry.
# Test system: SW-620
# experimentDescription: NCI tumour cell line growth inhibition, 48 h
Calls of active or inactive are those of the source. Cut-off read from the data, not from the text of the source: active = GI50 up to about 1.1 µM and inactive = higher.

Answered cases to consult:
N#CCCN(CCC#N)c1ccc(C(=N/c2ccc(Cl)cc2)/N=N/c2ccccc2)cc1 :: > 100 µM (inactive)
COc1ccc(-n2nnc(C(N)=O)c2O)cc1 :: > 100 µM (inactive)
O=C1NC2NC3NC(=O)NC3NC2N1 (stereo unspecified) :: > 100 µM (inactive)
O=C(/C=C/c1ccc(O)c(O)c1)OCCOC(=O)/C=C/c1ccc(O)c(O)c1 :: 38.1 µM (inactive)
CCCN(CCCC(NC(C)=O)C(=O)NCc1ccccc1)C(=O)N(C)N=O (stereo unspecified) :: > 100 µM (inactive)

The measured GI50 associated with Cc1cccc(NC(=O)C(=O)C(C(=O)c2ccccc2F)C2OC(=O)c3ccccc32)c1Cl (stereo unspecified) reads 42.5 µM (inactive)
